# assayedTarget: c-kit (Homo sapiens, UniProt P10721)
# Construct: MO7e (human megakaryocytic leukemia cell line) which had been arrested for 20 hr; endogenous in cells; host or cells: MO7e human megakaryocytic leukemia cell line
# Sequence (P10721 26-976): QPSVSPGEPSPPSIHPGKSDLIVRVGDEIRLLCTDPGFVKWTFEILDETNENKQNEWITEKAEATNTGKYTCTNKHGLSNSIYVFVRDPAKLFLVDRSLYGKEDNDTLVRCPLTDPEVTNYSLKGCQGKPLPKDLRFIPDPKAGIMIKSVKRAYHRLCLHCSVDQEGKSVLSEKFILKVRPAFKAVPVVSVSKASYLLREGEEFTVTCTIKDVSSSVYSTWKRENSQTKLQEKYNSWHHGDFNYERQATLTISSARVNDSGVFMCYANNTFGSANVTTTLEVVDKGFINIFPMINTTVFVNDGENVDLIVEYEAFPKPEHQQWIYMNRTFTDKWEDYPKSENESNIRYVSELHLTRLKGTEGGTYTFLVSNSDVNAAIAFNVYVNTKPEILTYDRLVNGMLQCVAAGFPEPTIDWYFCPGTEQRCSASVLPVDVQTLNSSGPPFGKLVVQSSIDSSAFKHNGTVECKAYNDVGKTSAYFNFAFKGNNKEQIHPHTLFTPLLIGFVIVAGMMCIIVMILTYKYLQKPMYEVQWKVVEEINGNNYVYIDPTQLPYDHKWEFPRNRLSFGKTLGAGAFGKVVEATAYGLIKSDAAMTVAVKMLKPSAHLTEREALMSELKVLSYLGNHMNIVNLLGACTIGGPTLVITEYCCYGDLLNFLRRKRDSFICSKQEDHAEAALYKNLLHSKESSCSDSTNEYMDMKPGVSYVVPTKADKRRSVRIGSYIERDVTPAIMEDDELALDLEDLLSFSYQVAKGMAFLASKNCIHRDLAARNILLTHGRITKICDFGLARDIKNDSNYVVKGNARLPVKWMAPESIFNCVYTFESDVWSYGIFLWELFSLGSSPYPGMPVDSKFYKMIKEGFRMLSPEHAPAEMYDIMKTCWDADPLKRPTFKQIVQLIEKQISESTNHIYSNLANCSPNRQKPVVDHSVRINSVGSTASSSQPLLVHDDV
# testDescription: Inhibitory activity against c-kit autophosphorylation (MO7e cells, h-SCF)
# Type: cell-based
# runConditions: MO7e cells, h-SCF stimulation; read-out: c-kit IC50
Assignment: determine reported IC50 for the given compounds.
Report the value in nM with no unit label.

Request: Which measured IC50 belongs to COc1ccc(C(=O)NC(=S)Nc2ccc(Oc3ccnc4cc(OC)c(OC)cc34)c(F)c2)cc1 , tested on c-kit (Homo sapiens, UniProt P10721)?
Result: 788

Request: Which measured IC50 belongs to COc1cc2ncnc(Oc3ccc(NC(=S)NC(=O)c4ccc(F)cc4)cc3)c2cc1OC , tested on c-kit (Homo sapiens, UniProt P10721)?
Result: 264

Request: Which measured IC50 belongs to COc1cc2ncnc(Oc3ccc(NC(=S)NC(=O)CCc4ccccc4C)cc3)c2cc1OC , tested on c-kit (Homo sapiens, UniProt P10721)?
Result: 42

Request: Which measured IC50 belongs to COc1cc2nccc(Oc3ccc(NC(=S)NC(=O)N4CCOCC4)cc3Cl)c2cc1OC , tested on c-kit (Homo sapiens, UniProt P10721)?
Result: 408
